Cited source: paper PMC10452110

# System: E. coli ATCC 25922
# Experiment summary: Enhancement of erythromycin action against E. coli
# Type: cell-based, Escherichia coli
# Experimental setup: erythromycin at 10.9 µM
Reported metric: Eryth/E. c: concentration required to restore erythromycin activity (combination MIC) (µM)
Express it in µM; write the number only.

Use these answered entries as a reference point.
[[record]]
compound = "Cc1ccc2[nH]cc(CC(=O)NCCCNCCCCCCCNCCCNC(=O)Cc3c[nH]c4ccc(C)cc34)c2c1.O=C(O)C(F)(F)F.O=C(O)C(F)(F)F [Compound 17c]"
unit_descriptor = "µM"
value_reported = 61.4

[[record]]
compound = "O=C(Cc1c[nH]c2ccccc12)NCCCNCCCCCCCCNCCCNC(=O)Cc1c[nH]c2ccccc12.O=C(O)C(F)(F)F.O=C(O)C(F)(F)F [Compound 14d]"
unit_descriptor = "µM"
value_reported = 250


Kindly state the measured Eryth/E. c: concentration required to restore erythromycin activity (combination MIC) obtained for O=C(Cc1c[nH]c2ccc(Br)cc12)NCCCNCCCCCCNCCCNC(=O)Cc1c[nH]c2ccc(Br)cc12.O=C(O)C(F)(F)F.O=C(O)C(F)(F)F [Compound 15b] with E. coli ATCC 25922.
53.7

----------
# System: E. coli ATCC 25922
# Experiment summary: Enhancement of erythromycin action against E. coli
# Assay type: cell-based, Escherichia coli
# Experimental setup: erythromycin at 10.9 µM
Reported metric: Eryth/E. c: concentration required to restore erythromycin activity (combination MIC) (µM)
Write it as a number; the unit µM goes unstated.

[[record]]
molecule = "O=C(Cc1c[nH]c2c(F)cccc12)NCCCNCCCCCCCCCCNCCCNC(=O)Cc1c[nH]c2c(F)cccc12.O=C(O)C(F)(F)F.O=C(O)C(F)(F)F [Compound 18e]"
unit_descriptor = "µM"
value_reported = 57.8

[[record]]
molecule = "Cc1ccc2[nH]cc(CC(=O)NCCCNCCCCCCCCCCCCNCCCNC(=O)Cc3c[nH]c4ccc(C)cc34)c2c1.O=C(O)C(F)(F)F.O=C(O)C(F)(F)F [Compound 17f]"
unit_descriptor = "µM"
value_reported = 14.1

[[record]]
molecule = "Cc1ccc2[nH]cc(CC(=O)NCCCNCCCCCCCCNCCCNC(=O)Cc3c[nH]c4ccc(C)cc34)c2c1.O=C(O)C(F)(F)F.O=C(O)C(F)(F)F [Compound 17d]"
unit_descriptor = "µM"
value_reported = 121

[[record]]
molecule = "Cc1cccc2c(CC(=O)NCCCNCCCCCCCCNCCCNC(=O)Cc3c[nH]c4c(C)cccc34)c[nH]c12.O=C(O)C(F)(F)F.O=C(O)C(F)(F)F [Compound 20d]"
unit_descriptor = "µM"
value_reported = 241

[[record]]
molecule = "Cc1cccc2c(CC(=O)NCCCNCCCCNCCCNC(=O)Cc3c[nH]c4c(C)cccc34)c[nH]c12.O=C(O)C(F)(F)F.O=C(O)C(F)(F)F [Compound 20a]"
unit_descriptor = "µM"
value_reported = 64.7


Could you now consider this next molecule?
GET /values?readout=Eryth/E. c: concentration required to restore erythromycin activity (combination MIC)&item= O=C(Cc1c[nH]c2ccccc12)NCCCNCCCCCCCCCCNCCCNC(=O)Cc1c[nH]c2ccccc12.O=C(O)C(F)(F)F.O=C(O)C(F)(F)F [Compound 14e]
15.1

----------
Eryth/E. c: concentration required to restore erythromycin activity (combination MIC) for assorted molecules
# Tested on: E. coli ATCC 25922
# Experiment summary: Enhancement of erythromycin action against E. coli
# Format: cell-based, Escherichia coli
# Experimental setup: erythromycin at 10.9 µM
Report the figure in µM without appending any unit label.

[[record]]
molecule = "Cc1cccc2c(CC(=O)NCCCNCCCCCCCNCCCNC(=O)Cc3c[nH]c4c(C)cccc34)c[nH]c12.O=C(O)C(F)(F)F.O=C(O)C(F)(F)F [Compound 20c]"
value_reported = 123

[[record]]
molecule = "O=C(Cc1c[nH]c2c(F)cccc12)NCCCNCCCCCCCCCCCCNCCCNC(=O)Cc1c[nH]c2c(F)cccc12.O=C(O)C(F)(F)F.O=C(O)C(F)(F)F [Compound 18f]"
value_reported = 14.0

[[record]]
molecule = "COc1ccc2[nH]cc(CC(=O)NCCCNCCCCCCCNCCCNC(=O)Cc3c[nH]c4ccc(OC)cc34)c2c1.O=C(O)C(F)(F)F.O=C(O)C(F)(F)F [Compound 16c]"
value_reported = 50

[[record]]
molecule = "O=C(Cc1c[nH]c2c(F)cccc12)NCCCNCCCCCCCNCCCNC(=O)Cc1c[nH]c2c(F)cccc12.O=C(O)C(F)(F)F.O=C(O)C(F)(F)F [Compound 18c]"
value_reported = 243


Entry under review: COc1ccc2[nH]cc(CC(=O)NCCCNCCCCCCCCNCCCNC(=O)Cc3c[nH]c4ccc(OC)cc34)c2c1.O=C(O)C(F)(F)F.O=C(O)C(F)(F)F [Compound 16d] . Reported Eryth/E. c: concentration required to restore erythromycin activity (combination MIC)?
6.25

Quick one: O=C(Cc1c[nH]c2ccccc12)NCCCNCCCCCCCCCCCCNCCCNC(=O)Cc1c[nH]c2ccccc12.O=C(O)C(F)(F)F.O=C(O)C(F)(F)F [Compound 14f]
14.6
